molecular target: BTK (Homo sapiens, UniProt Q06187); construct: BTK Degradative Activity of Exemplary Compounds of the Present Disclosure in a RAMOS Cell Line; host or cells: RAMOS; test: BTK degradative activity in a RAMOS cell line (Western blot); assay type: cell-based; conditions: 6 hours after administration, read-out: RAMOS BTK Degradation DC50
Sequence (Q06187 whole entry): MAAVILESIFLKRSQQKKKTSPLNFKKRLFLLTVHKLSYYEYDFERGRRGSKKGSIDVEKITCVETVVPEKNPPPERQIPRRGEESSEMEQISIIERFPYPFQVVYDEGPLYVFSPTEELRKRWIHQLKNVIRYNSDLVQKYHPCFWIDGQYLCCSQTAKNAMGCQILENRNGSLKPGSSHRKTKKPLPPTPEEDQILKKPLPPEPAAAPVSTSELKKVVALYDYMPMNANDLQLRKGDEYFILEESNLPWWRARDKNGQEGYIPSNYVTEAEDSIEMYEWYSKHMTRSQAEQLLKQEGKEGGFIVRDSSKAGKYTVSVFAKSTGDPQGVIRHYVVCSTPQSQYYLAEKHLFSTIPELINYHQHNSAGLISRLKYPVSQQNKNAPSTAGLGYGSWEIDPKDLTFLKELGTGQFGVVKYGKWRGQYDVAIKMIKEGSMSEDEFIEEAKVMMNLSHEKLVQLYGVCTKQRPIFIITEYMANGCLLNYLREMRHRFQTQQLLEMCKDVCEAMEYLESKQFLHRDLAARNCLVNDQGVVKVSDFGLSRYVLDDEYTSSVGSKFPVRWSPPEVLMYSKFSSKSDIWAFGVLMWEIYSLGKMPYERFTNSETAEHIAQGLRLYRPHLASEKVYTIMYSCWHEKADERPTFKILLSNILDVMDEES
Give measured DC50 for each item. Keep answers brief.

State its DC50: O=C1CCC(N2C(=O)c3ccc(N4CCN(CC5CCN(c6ccc(C(=O)N7CCC[C@@H](Nc8ncnc9[nH]cc(C(=O)c%10ccc(Oc%11ccccc%11)cc%10Cl)c89)C7)cn6)CC5)CC4)cc3C2=O)C(=O)N1 (some centres unmarked) [Compound 10]
≥ 100 nM

State its DC50: COc1ccc(F)cc1C(=O)NCc1ccc(-c2nn(-c3ccc(N4CCC(CN5CCN(c6cc7c(cc6F)C(=O)N([C@H]6CCC(=O)NC6=O)C7)CC5)CC4)c(F)c3)c3ncnc(N)c23)cc1 [Compound 51]
< 10 nM

State its DC50: COc1ccc(F)cc1C(=O)NCc1ccc(-c2nn(-c3ccc(N4CCC(CN5CCN(c6ccc7c(c6)CN([C@H]6CCC(=O)NC6=O)C7=O)CC5)CC4)c(F)c3)c3ncnc(N)c23)cc1 [Compound 49]
< 10 nM

State its DC50: O=C1CCC(N2C(=O)c3cccc(C#CCCCCCC(=O)N4CCC(Nc5ncnc6[nH]cc(C(=O)c7ccc(Oc8ccccc8)cc7Cl)c56)CC4)c3C2=O)C(=O)N1 (centres unmarked) [Compound 38]
≥ 100 nM

State its DC50: COc1ccc(C(=O)N2CCN(CCCCC(=O)N3CCC(Nc4ncnc5[nH]cc(C(=O)c6ccc(Oc7ccccc7)cc6Cl)c45)CC3)CC2)cc1N1CCC(=O)NC1=O [Compound 72]
≥ 100 nM

---

biological target: BTK (Homo sapiens); construct: BTK Degradative Activity of Exemplary Compounds of the Present Disclosure in a RAMOS Cell Line; host or cells: RAMOS; experiment: BTK degradative activity in a RAMOS cell line (Western blot); format: cell-based; conditions: 6 hours after administration, read-out: RAMOS BTK Degradation DC50
metricName: DC50

State its DC50: COc1ccc(F)cc1C(=O)NCc1ccc(-c2nn(-c3ccc(N4CC[C@@H](CN5CCN(c6ccc7c(c6)CN([C@H]6CCC(=O)NC6=O)C7=O)CC5)C4)nc3)c3ncnc(N)c23)cc1 [Compound 94]
< 10 nM

State its DC50: O=C1CC[C@H](N2Cc3cc(N4CCN(C5CC(CC(=O)N6CCC(Nc7ncnc8[nH]cc(C(=O)c9ccc(Oc%10ccccc%10)cc9Cl)c78)CC6)C5)CC4)ccc3C2=O)C(=O)N1 (some centres unmarked) [Compound 42]
< 10 nM

State its DC50: COc1ccc(C(=O)N2CCN(CCCCCCC(=O)N3CCC(Nc4ncnc5[nH]cc(C(=O)c6ccc(Oc7ccccc7)cc6Cl)c45)CC3)CC2)cc1N1CCC(=O)NC1=O [Compound 78]
< 10 nM

State its DC50: O=C1CC[C@H](N2Cc3cc(N4CCN(CCCCCCC(=O)N5CCC(Nc6ncnc7[nH]cc(C(=O)c8ccc(Oc9ccccc9)cc8Cl)c67)CC5)CC4)ccc3C2=O)C(=O)N1 [Compound 21]
10 to 100 nM

State its DC50: COc1ccc(F)cc1C(=O)NCc1ccc(-c2nn(C3CN(C(=O)c4ccc(CN5CCN(c6ccc7c(c6)CN([C@H]6CCC(=O)NC6=O)C7=O)CC5)cc4)C3)c3ncnc(N)c23)cc1 [Compound 62]
< 10 nM

---

Give measured DC50 for each item. Keep answers brief.
target: BTK (Homo sapiens, UniProt Q06187); construct: BTK Degradative Activity of Exemplary Compounds of the Present Disclosure in a RAMOS Cell Line; host or cells: RAMOS; test: BTK degradative activity in a RAMOS cell line (Western blot); type: cell-based; settings: 6 hours after administration, read-out: RAMOS BTK Degradation DC50

Name the value of DC50 reported for O=C1CCC(N2C(=O)c3ccc(N4CCC(N5CC(CC(=O)N6CCC(Nc7ncnc8[nH]cc(C(=O)c9ccc(Oc%10ccccc%10)cc9Cl)c78)CC6)C5)CC4)cc3C2=O)C(=O)N1 (stereo not shown) [Compound 48] when tested on BTK (Homo sapiens, UniProt Q06187).
< 10 nM

Name the value of DC50 reported for O=C1CC[C@H](N2Cc3cc(N4CCN(CCCCCC(=O)N5CCC[C@@H](Nc6ncnc7[nH]cc(C(=O)c8ccc(Oc9ccccc9)cc8Cl)c67)C5)CC4)ccc3C2=O)C(=O)N1 [Compound 16] when tested on BTK (Homo sapiens, UniProt Q06187).
10 to 100 nM

Name the value of DC50 reported for O=C1CCC(N2C(=O)c3ccc(N4CCN(CCCCCC(=O)N5CCC[C@@H](Nc6ncnc7[nH]cc(C(=O)c8ccc(Oc9ccccc9)cc8Cl)c67)C5)CC4)cc3C2=O)C(=O)N1 (stereo partly shown) [Compound 7] when tested on BTK (Homo sapiens, UniProt Q06187).
10 to 100 nM

Name the value of DC50 reported for O=C1CCC(N2C(=O)c3ccc(N4CCN(Cc5ccc(C(=O)N6CCC[C@@H](Nc7ncnc8[nH]cc(C(=O)c9ccc(Oc%10ccccc%10)cc9Cl)c78)C6)cn5)CC4)cc3C2=O)C(=O)N1 (stereo partly shown) [Compound 9] when tested on BTK (Homo sapiens, UniProt Q06187).
10 to 100 nM

Name the value of DC50 reported for O=C1CC[C@H](N2Cc3cc(N4CCN(CCCCC(=O)N5CCC[C@@H](Nc6ncnc7[nH]cc(C(=O)c8ccc(Oc9ccccc9)cc8Cl)c67)C5)CC4)ccc3C2=O)C(=O)N1 [Compound 14] when tested on BTK (Homo sapiens, UniProt Q06187).
10 to 100 nM

Name the value of DC50 reported for COc1ccc(C(=O)N2CCC(N3CCC(CC(=O)N4CCC(Nc5ncnc6[nH]cc(C(=O)c7ccc(Oc8ccccc8)cc7Cl)c56)CC4)CC3)CC2)cc1N1CCC(=O)NC1=O [Compound 73] when tested on BTK (Homo sapiens, UniProt Q06187).
10 to 100 nM

Name the value of DC50 reported for O=C1CCC(N2C(=O)c3ccc(N4CCN(CCCCN5CCC(Nc6ncnc7[nH]cc(C(=O)c8ccc(Oc9ccccc9)cc8Cl)c67)CC5)CC4)cc3C2=O)C(=O)N1 (stereo not shown) [Compound 27] when tested on BTK (Homo sapiens, UniProt Q06187).
10 to 100 nM

Name the value of DC50 reported for COc1ccc(F)cc1C(=O)NCc1ccc(-c2nn(C3CCN(c4ccc(CN5CCN(c6ccc7c(c6)CN([C@H]6CCC(=O)NC6=O)C7=O)CC5)cn4)CC3)c3ncnc(N)c23)cc1 [Compound 52] when tested on BTK (Homo sapiens, UniProt Q06187).
< 10 nM

Name the value of DC50 reported for O=C1CCC(N2C(=O)c3ccc(N4CCN(CCCCCCC(=O)N5CCC[C@@H](Nc6ncnc7[nH]cc(C(=O)c8ccc(Oc9ccccc9)cc8Cl)c67)C5)CC4)cc3C2=O)C(=O)N1 (stereo partly shown) [Compound 8] when tested on BTK (Homo sapiens, UniProt Q06187).
10 to 100 nM

Name the value of DC50 reported for COc1ccc(F)cc1C(=O)NCc1ccc(-c2nn(C3CN(c4ccc(CN5CCN(c6ccc7c(c6)CN([C@H]6CCC(=O)NC6=O)C7=O)CC5)cn4)C3)c3ncnc(N)c23)cc1 [Compound 54] when tested on BTK (Homo sapiens, UniProt Q06187).
< 10 nM

---

target: BTK (Homo sapiens, UniProt Q06187); construct: BTK Degradative Activity of Exemplary Compounds of the Present Disclosure in a RAMOS Cell Line; host or cells: RAMOS; test: BTK degradative activity in a RAMOS cell line (Western blot); format: cell-based; details: 6 hours after administration, read-out: RAMOS BTK Degradation DC50
metricName: DC50

State its DC50: O=C1CCC(N2C(=O)c3ccc(N4CCN(CCCCCC(=O)N5CCC(Nc6ncnc7[nH]cc(C(=O)c8ccc(Oc9ccccc9)cc8Cl)c67)CC5)CC4)cc3C2=O)C(=O)N1 (centres unmarked)
10 to 100 nM

State its DC50: `COc1ccc(F)cc1C(=O)NCc1ccc(-c2nn(-c3ccc(N4CC[C@@H](CN5CCN(c6ccc7c(c6)CN([C@H]6CCC(=O)NC6=O)C7=O)CC5)C4)c(F)c3)c3ncnc(N)c23)cc1`
< 10 nM

State its DC50: COc1ccc(F)cc1C(=O)NCc1ccc(-c2nn(C3CCN(C(=O)CCCCN4CCN(c5ccc6c(c5)CN([C@H]5CCC(=O)NC5=O)C6=O)CC4)C3)c3ncnc(N)c23)cc1 (some centres unmarked)
10 to 100 nM

State its DC50: `O=C1CC[C@H](N2Cc3cc(N4CCN(CCCCC(=O)N5CCC(Nc6ncnc7[nH]cc(C(=O)c8ccc(Oc9ccccc9)cc8Cl)c67)CC5)CC4)ccc3C2=O)C(=O)N1`
< 10 nM

State its DC50: `O=C1CC[C@H](N2Cc3cc(N4CCN(CCCC(=O)N5CCC[C@@H](Nc6ncnc7[nH]cc(C(=O)c8ccc(Oc9ccccc9)cc8Cl)c67)C5)CC4)ccc3C2=O)C(=O)N1`
10 to 100 nM
